All figures here come from the MegaScale stability set (Tsuboyama et al. 2023).

B1: HEEH_KT_rd6_3632 (parent)
chain: DAEELIELVERALKEGREIILLGVRITSEEAGKWFIEWIRRFL

Variants of: B1
protocol_description: folding stability dG (cDNA display proteolysis); higher = more stable
experimental_parameters: PBS, room temperature
outcome_measure: folding stability dG (kJ/mol)
// units = kJ/mol; emit number, no label

DAEKLIELVERALKEGREIILLGVRITSEEAGKWFIEWIRRFL [E4K] = 17.5
DAEELIELVERALKEGREIILLGVRITSVEAGKWFIEWIRRFL [E29V] = 15.9
DAEELIELVERALKEGREIILLGVRITSEEAGKWFIEWCRRFL [I39C] = 14.6

DAEELIELVERALKEGREIILLGVRITSEEAGKWFIEWIFRFL [R40F] yielded folding stability dG of 16.2

DAEELIELVERALKEGREIILLGVRITSEEAGKWFIEWIRRDL [F42D] yielded folding stability dG of 10.5

DAEELIELVERALKEGREIILLGVRITSEEAGKWFIEPIRRFL [W38P] yielded folding stability dG of 9.46

DAEELIELVERALKEGREIILLGVRITSEEAGKWIIEWIRRFL [F35I] yielded folding stability dG of 16.1

DAEELIILVERALKEGREIILLGVRITSEEAGKWFIEWIRRFL [E7I] yielded folding stability dG of 15.9
